- TGT: T1, human IL-2Rβ (human, UniProt P14784 27-240, limits assumed)
- T1 construct: also called hIL-2Rβ; IL-2 receptor beta
- T1 sequence (looked up): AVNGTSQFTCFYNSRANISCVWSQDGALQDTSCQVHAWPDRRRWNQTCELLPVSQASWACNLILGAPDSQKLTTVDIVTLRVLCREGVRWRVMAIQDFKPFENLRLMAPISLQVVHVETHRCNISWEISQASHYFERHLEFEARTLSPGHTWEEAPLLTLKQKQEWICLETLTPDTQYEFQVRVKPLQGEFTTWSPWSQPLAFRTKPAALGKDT
- PROTOCOL_NOTES: SPR, steady state
READOUT_LABEL: Kd

Known results for binders:
1. hIL-15 V49R/M109A (ligand) NWVNVISDLKKIEDLIQSMHIDATLYTESDVHPSCKVTAMKCFLLELQRISLESGDASIHDTVENLIILANNSLSSNGNVTESGCKECEELEEKNIKEFLQSFVHIVQAFINTGGGGSGHHHHHHHHGGGLNDIFEAQKIEWHE    > 500 nM
2. hIL-15 V49R/S7T (ligand) NWVNVITDLKKIEDLIQSMHIDATLYTESDVHPSCKVTAMKCFLLELQRISLESGDASIHDTVENLIILANNSLSSNGNVTESGCKECEELEEKNIKEFLQSFVHIVQMFINTGGGGSGHHHHHHHHGGGLNDIFEAQKIEWHE    > 500 nM
3. hIL-15 V49R/L69M (ligand) NWVNVISDLKKIEDLIQSMHIDATLYTESDVHPSCKVTAMKCFLLELQRISLESGDASIHDTVENLIIMANNSLSSNGNVTESGCKECEELEEKNIKEFLQSFVHIVQMFINTGGGGSGHHHHHHHHGGGLNDIFEAQKIEWHE    > 1000 nM

Kd reading for hIL-15 V49R/N4A (ligand) NWVAVISDLKKIEDLIQSMHIDATLYTESDVHPSCKVTAMKCFLLELQRISLESGDASIHDTVENLIILANNSLSSNGNVTESGCKECEELEEKNIKEFLQSFVHIVQMFINTGGGGSGHHHHHHHHGGGLNDIFEAQKIEWHE : > 500 nM
